Reference source for all entries: PubChem BioAssay AID1159580

experiment: chemical genetic growth profiling, strain panel (AID 1159580);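 note: tested at 20 µM; growth read once vehicle control cultures reached saturation at 30 °C; lower values mean less growth of the strain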; details: S. cerevisiae deletion strains, growth OD, locus YJL168C, strain set2
Screen size: about 5,500 compounds; about 2,000 (36%) were called active. About 18% were inconclusive and are not listed. Cut-off read from the data, not from the text of the source: active = normalized growth mostly below about 0.91 (no sharp cut-off); inconclusive = no clear call, values can overlap the other calls; inactive = mostly above about 0.92. The list shows a part of the results.
Tick one outcome: active, inactive

[[record]]
molecule = "C[CH2][Hg][S]c1ccccc1C(=O)O"
group = "active"

[[record]]
molecule = "CNC1(C)C2CCC(C2)C1(C)C (stereo unspecified)"
group = "inactive"

[[record]]
molecule = "CN1Cc2c(ccc3c2OCO3)C2C(O)Cc3cc4c(cc3C21)OCO4 (stereo unspecified)"
group = "inactive"


Hi, do you know how CCC(C(N)=O)c1ccccc1 (stereo unspecified) came out in this test?
inactive

What classification did COc1ccc(-c2coc3c(OC)c(OC)ccc3c2=O)cc1 end up with in this test?
inactive

Hi team, can someone confirm the assay call for COc1c(O)cc2oc3cc(O)c(CC=C(C)C)c(O)c3c(=O)c2c1CC=C(C)C ?
inactive

Dear all, I need the recorded test outcome for N#Cc1c(Cl)c(Cl)c(Cl)c(C#N)c1Cl , thank you.
inactive

I'd appreciate the recorded outcome for Cc1cc(=O)c2c(O)c(C)c(O)cc2o1 from this test.
inactive

// return assay outcome for COc1ccc(-c2coc3c(OC)c(O)ccc3c2=O)cc1
inactive
